This collection of values is drawn from ChEMBL document CHEMBL1151448.

I'd appreciate it if you could supply MIC values for the items below.
System: Clostridium perfringens
Assay: Antimicrobial activity against Clostridium perfringens isolated from intra-abdominal infection and pelvic inflammatory disease patients after 48 hrs by time kill analysis
Type: functional
Give bare numbers, in µg/mL.

C[C@@H](O)[C@H]1C(=O)N2C(C(=O)O)=C(S[C@@H]3CN[C@H](CNS(N)(=O)=O)C3)[C@H](C)[C@H]12 [DORIPENEM]; 0.03
C[C@@H](O)[C@H]1C(=O)N2C(C(=O)O)=C(S[C@@H]3CN[C@H](C(=O)Nc4cccc(C(=O)O)c4)C3)[C@H](C)[C@H]12; 0.125

// each compound listed below needs its MIC
1. CCC[C@@H]1C[C@@H](C(=O)N[C@@H]([C@H]2O[C@H](SC)[C@H](O)[C@@H](O)[C@H]2O)[C@H](C)Cl)N(C)C1 [CLINDAMYCIN]
2. C[C@@H](O)[C@H]1C(=O)N2C(C(=O)O)=C(S[C@@H]3CN[C@H](C(=O)N(C)C)C3)[C@H](C)[C@H]12 [MEROPENEM]
3. Cc1ncc([N+](=O)[O-])n1CCO [METRONIDAZOLE]
4. CO/N=C(\C(=O)N[C@@H]1C(=O)N2C(C(=O)O)=C(CSc3nc(=O)c(O)nn3C)CS[C@H]12)c1csc(N)n1 [CEFTRIAXONE]
5. C[C@@H](O)[C@H]1C(=O)N2C(C(=O)O)=C(SCCNC=N)C[C@H]12 [IMIPENEM ANHYDROUS]

[A]
1: 0.125; 2: 0.03; 3: 2; 4: 2; 5: 0.06
